Data origin, for the record: PubChem BioAssay (NCI)

Tested on: SK-MEL-5 melanoma
Experiment: NCI-60 one-dose screen, 48 h
Settings: 10 µM unless noted
This is part of a sample that, as a whole, favours compounds with a hit. Of some 83,000 tested, about 20% had one in any assay. Activity calls are given as the source filed them. The calls were made as follows: active = growth percent below 10; inactive = the rest.
Your reply should match one of these outcome classes. TRUE (active), FALSE (inactive)

COc1cc2nc3cc([N+](=O)[O-])ccc3c(NCCCNCCO)c2cc1OC
TRUE
CC(C)CCc1nc2ccc(NCc3ccc(OCCN4CCC(C)CC4)cc3)cc2[nH]1
FALSE
CCN=c1sc2c(n1NC(=O)c1cc3ccc1CCc1ccc(cc1)CC3)C(=O)c1ccccc1C2=O
TRUE
O=c1ccc2nc(-c3ccccc3)nn(-c3ccccn3)c-2c1
FALSE
O=S(=O)(c1ccc(NCSc2nc3ccccc3s2)cc1)c1ccc(NCSc2nc3ccccc3s2)cc1
FALSE

Call for entry COC1CC(O)C2=C(CC3C(/C(C)=C\CC=C(C)C)CCC3(C)O2)C1=O (centres undefined) :
FALSE

Call for entry CNC1=C([N+](=O)[O-])C(c2ccc(OC)cc2)C(C#N)=C(c2ccc[nH]2)O1 (centres undefined) :
FALSE

Call for entry COc1cc(C(=O)n2nc(NCCCc3ccccc3)c3cc(N)ccc32)cc(OC)c1OC :
FALSE

Call for entry O=C1OCC2=C1C(c1cccc(F)c1)c1cc3c(cc1N2CCO)CCC3 (centres undefined) :
TRUE

Call for entry CNC(=O)c1cc(Oc2ccc3nc(NC(=O)c4cc(C(F)(F)F)cc(C(F)(F)F)c4)sc3c2)ccn1 :
TRUE

Call for entry COc1ccc(Nc2nc(Nc3cc(C)[nH]n3)c3cc(OC)c(OC)cc3n2)cc1 :
TRUE

Call for entry O=C(OCC(O)(CO)C(=O)NC12CC3CC(CC(C3)C1)C2)c1ccc(Cl)cc1 (centres undefined) :
FALSE

Call for entry C/C=C(/C)C(=O)O[C@@H]1CC(C)(C)CC2C34OC(=O)[C@@]21CC[C@@]3(C)[C@]1(C)CCC2C(C)(C)C(=O)CC[C@]2(C)C1C[C@@H]4O (some centres undefined) :
FALSE

Call for entry N#CSCc1cc(Cl)c(CSC#N)cc1Cl :
FALSE

Call for entry COc1cc(C2CC(c3cccc(Nc4ccncc4)c3)=Nc3c(N)ncnc3N2)cc(OC)c1OC (centres undefined) :
FALSE

Call for entry Cc1ccc(Nc2oc(-c3ccccc3)nc2[P+](c2ccccc2)(c2ccccc2)c2ccccc2)cc1 :
TRUE

Call for entry COC(=O)c1nc(-c2ccccc2)oc1S(=O)(=O)NCC(c1ccc(Cl)cc1)N1CCCCC1 (centres undefined) :
FALSE

Call for entry CC/C(=C(/c1ccc(Cl)cc1)c1ccc(OCCN2CCCC2)cc1)c1ccccc1 :
FALSE

Call for entry Cc1oc2ccc(O)c(CN3CCCCCC3)c2c1C(=O)Nc1ccc(C(F)(F)F)cc1 :
FALSE
